variants and their reported reverse-splicing fitness
B1: Azoarcus group I ribozyme (parent)
chain: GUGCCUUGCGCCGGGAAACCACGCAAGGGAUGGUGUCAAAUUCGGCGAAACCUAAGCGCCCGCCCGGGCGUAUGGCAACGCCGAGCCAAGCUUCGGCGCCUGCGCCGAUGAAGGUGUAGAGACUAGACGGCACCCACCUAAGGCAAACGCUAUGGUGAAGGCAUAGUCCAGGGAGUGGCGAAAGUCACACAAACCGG

variants of: B1; test: reverse-splicing fitness (ratio to wild type); higher = more active; in vitro selection; Mg2+ level not given

- Mut: "C82A A111U A120G U176A"
  reverse-splicing fitness: 0.0127
- Mut: "A120G A145C C150G C169U"
  reverse-splicing fitness: 0.0909
- Mut: "C82G A111C A120U A145C C150U"
  reverse-splicing fitness: 0.0115
- Mut: "C82U A120U A145G C169U U176C"
  reverse-splicing fitness: 0.00381
- Mut: "C82U A111C A120C A145C C150A C169A"
  reverse-splicing fitness: 0.00737
- Mut: "C82A A120U C150G C169G"
  reverse-splicing fitness: 0.00634
- Mut: "C82U A111U A120C A145G C150U C169U"
  reverse-splicing fitness: 0.0108
- Mut: "C82G A111C A120U A145C C150U C169A U176C"
  reverse-splicing fitness: 0.0022
- Mut: "C82G A120C A145G C150U U176A"
  reverse-splicing fitness: 0.0566
- Mut: "A111G A120C A145G C150U C169U U176A"
  reverse-splicing fitness: 0.0456
- Mut: "C82U A111C A145G C150U C169A U176C"
  reverse-splicing fitness: 0.013
- Mut: "C82U A111G A145U C150A C169G U176C"
  reverse-splicing fitness: 0.0113
- Mut: "C82G A120U A145G C150U C169G"
  reverse-splicing fitness: 0.00765
- Mut: "A111C A120U A145G C150A"
  reverse-splicing fitness: 0.099
- Mut: "C82G A120U A145C C150G U176C"
  reverse-splicing fitness: 0.00907
- Mut: "C82G A111G C150U C169A U176G"
  reverse-splicing fitness: 0.00685
- Mut: "C82U A111U A120C C169U U176A"
  reverse-splicing fitness: 0.0196
- Mut: "C82U A145C C169G U176C"
  reverse-splicing fitness: 0.00995
- Mut: "C82G A111C A120G A145C C150A C169G"
  reverse-splicing fitness: 0.00794
- Mut: "C82A A111C A120C A145U C150U U176C"
  reverse-splicing fitness: 0.0187
- Mut: "A111C A120G A145C U176G"
  reverse-splicing fitness: 0.00548
- Mut: "A111G A120C A145C C150A C169G U176G"
  reverse-splicing fitness: 0.00452

Each recorded value in this set is attributed to the RNAGym collection of RNA variant scans (doi:10.1093/molbev/msab373).
